Source: patent US20250129032A1

Assay read-out pIC50; system under study: untagged, full-length human PTPN2 (TC45) (1-387) protein (Homo sapiens (Human)).
Sequence (P17706 other isoform, or with tags, fused parts or gaps): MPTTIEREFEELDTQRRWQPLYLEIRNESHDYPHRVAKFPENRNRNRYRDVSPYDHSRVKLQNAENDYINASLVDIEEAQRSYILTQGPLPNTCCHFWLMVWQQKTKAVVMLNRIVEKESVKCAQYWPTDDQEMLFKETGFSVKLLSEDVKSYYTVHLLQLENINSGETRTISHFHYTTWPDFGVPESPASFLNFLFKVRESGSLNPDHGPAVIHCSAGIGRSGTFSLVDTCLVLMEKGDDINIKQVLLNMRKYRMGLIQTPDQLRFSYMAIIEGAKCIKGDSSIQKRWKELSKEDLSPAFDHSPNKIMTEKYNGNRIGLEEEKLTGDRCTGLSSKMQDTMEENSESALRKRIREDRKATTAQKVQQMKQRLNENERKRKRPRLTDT
Please report pIC50 as the negative decimal logarithm of the molar concentration, giving only the number.

Entry CNC1CCc2cc(O)c(N3CC(=O)NS3(=O)=O)c(F)c2CC1 (stereo not drawn) under untagged, full-length human PTPN2 (TC45) (1-387) protein (Homo sapiens (Human)) had pIC50 of 7.78

Next:
Entry CCN[C@H]1CCc2cc(O)c(N3CC(=O)NS3(=O)=O)c(F)c2CC1 (single isomer, unassigned) under untagged, full-length human PTPN2 (TC45) (1-387) protein (Homo sapiens (Human)) had pIC50 of 7.90

Entry CN(C)C1CCc2cc(O)c(N3CC(=O)NS3(=O)=O)c(F)c2CC1 (stereo not drawn) under untagged, full-length human PTPN2 (TC45) (1-387) protein (Homo sapiens (Human)) had pIC50 of 7.83
